src = ChEMBL document CHEMBL1201862

Molecular target: Carboxy-terminal domain RNA polymerase II polypeptide A small phosphatase 1 (Homo sapiens, UniProt Q9GZU7)
Sequence (Q9GZU7 whole entry, the tested form may be a part): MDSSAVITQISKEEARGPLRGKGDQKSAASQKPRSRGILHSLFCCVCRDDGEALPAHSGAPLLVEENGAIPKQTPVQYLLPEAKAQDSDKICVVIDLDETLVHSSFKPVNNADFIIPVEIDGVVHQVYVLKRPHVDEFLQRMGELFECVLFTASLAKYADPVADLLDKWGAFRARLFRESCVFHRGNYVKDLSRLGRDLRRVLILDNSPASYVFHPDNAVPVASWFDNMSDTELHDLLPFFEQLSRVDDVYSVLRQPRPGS
Experiment: CTDSP1 inhibitors, concentration-response, biochemical, absorbance readout, ultra-high-throughput screen actives (AID 540297)
Format: functional
The source made the active and inactive calls. Cut-off read from the data, not from the text of the source: actives have a measured IC50 and inactives only a lower limit.
PROPERTY NAME: IC50

# COMPOUND, IC50
data = [
    ("COc1ccc(Cn2c(-c3ccco3)nc3oc4cc(OC)ccc4c(=O)c3c2=O)cc1", "7.58 µM (active)"),
    ("Cc1c(CCC(=O)O)c(=O)oc2c(C)c(OCc3cc4c(cc3Cl)OCO4)ccc12", "3.17 µM (active)"),
    ("Cc1csc(NC(=O)c2cc(-c3ccco3)nc3ccccc23)n1", "4.76 µM (active)"),
]

Entry Cc1ccc(-c2c(NCCc3ccccc3)c(=O)c2=O)cc1 has what IC50? 9.66 µM (active)

Entry Cc1cccc(NC(=O)CN2C(=O)S/C(=C\c3ccc(-c4cccc(C(=O)O)c4C)o3)C2=O)c1 has what IC50? 3.95 µM (active)

Entry Cc1cccc(NC(=O)CNC(=O)CCc2nc3sc4c(c3c(=O)[nH]2)CCCC4)c1C has what IC50? 2.66 µM (active)

Entry O=C(CCS(=O)(=O)c1ccc(Br)cc1)NCCc1ccccc1 has what IC50? 26.3 µM (active)

Entry O=C(N/N=C/c1ccccc1Cl)c1nc(O)c2cc([N+](=O)[O-])ccc2n1 has what IC50? 6.91 µM (active)

Entry O=C(c1cc2ncc(Br)cn2n1)N1CCN(C(=O)c2ccco2)CC1 has what IC50? 16.5 µM (active)

Entry C=C(C)C(=O)Nc1cccc(C2=NOC3(C2)C[C@@H](C(N)=O)N(C(=O)CCCCC)C3)c1 (stereo not given in full) has what IC50? 0.9 µM (active)
